metric: melting point

Item under review: "C=C(OCC)c1cc(N)c(OC)c(C(=O)OC)n1" . Reported melting point?
72 to 73 °C

====

Recorded measurements of melting point, one per entry

Consider the following illustrative entries.
CCS(=O)(=O)N1CCC(NC(=O)Nc2ccc(OC(F)(F)F)cc2)CC1 : 235 to 239 °C
CC1(C)CCc2cc(S(=O)(=O)n3c(CCCC(=O)O)cc4cc(Cl)ccc43)ccc2O1 : 166 to 169 °C
Cc1ccc2c(c1)c(N1CCN(C(=O)c3ccco3)CC1)c(C#N)c(=O)n2C : 231 °C
COc1ccc(N2CCN(c3c(C)c(C)c4c(c3C)C(CCc3ccccc3)C(C)(C)O4)CC2)cc1 (stereo not given) : 92 to 94 °C
COc1cc2c(cc1OC)-c1cc(Nc3ccc(C)cc3C)nc(=O)n1CC2 : 239 to 241 °C
O=C1NC(=O)c2ccc(-c3ccc(CN4CCCCC4)cc3)cc2C1=CNc1ccc(CN2CCCCC2)cc1 : 159 to 160 °C
CC(CCl)(CCl)c1cc(Cl)nnc1Cl : 92 to 94 °C
CN(C(=O)Nc1ccccc1)c1cccc(-c2ccc(CC3SC(=O)NC3=O)cc2)c1 (stereo not given) : 183 °C
O=C(NCCCc1cccc2oc(CCCCc3ccccc3)cc12)C1CC1 : 70 to 71 °C

# input for lookup
Item under review: "COC(=O)CNC(=O)c1ccc(C(=O)NS(=O)(=O)c2ccccc2)cn1" . Reported melting point?
125 to 126 °C

====

metric: melting point

CC(=O)N1CCC(Oc2c(F)c(F)c(F)c(F)c2F)CC1 : 60 to 65 °C

Item under review: "N=C(N)NOc1nccc2ccccc12" . Reported melting point?
162 to 164 °C

Item under review: "Cc1ccc(-c2ccc(C(=O)Nc3ccc4nc(CN5CCOCC5)ccc4c3)cn2)cc1" . Reported melting point?
214 to 216 °C

Item under review: "Cn1cc(C2=C(c3cn(C4CN(C(c5ccccc5)c5ccccc5)C4)c4ccccc34)C(=O)NC2=O)c2ccccc21" . Reported melting point?
102 to 105 °C

====

Recorded measurements of melting point, one per entry

Item under review: "COc1cc(C=CC(=O)c2ccccc2N(C)C)cc(OC)c1" . Reported melting point?
160 °C

Item under review: "O=C(Cc1cccc(C(F)(F)F)c1)Cn1cncn1" . Reported melting point?
85 to 87 °C

Item under review: "Cc1csc(N)c1S(N)(=O)=O" . Reported melting point?
142 to 144 °C

Item under review: CCCCCCc1ccc(-c2ccc(OC(=O)C3(C#N)CCCC(C)C3)cc2)cc1 (stereo not given) . Reported melting point?
51 °C

Item under review: "CC(=O)[C@@H]1CC[C@@H](C)C[C@H]1O" . Reported melting point?
46 to 46.5 °C

Item under review: "CC(C)[Si](C(C)C)(C(C)C)C1(CO)c2ccccc2-c2ccccc21" . Reported melting point?
106 to 108 °C

====

metric: melting point

Consider the following illustrative entries.
O=C(c1cc(-c2ccc(Cl)cc2)c(N2CCOCC2)s1)c1cc(-c2ccc(Cl)cc2)c(N2CCOCC2)s1 : 135 to 136 °C
O=C1CSC(N2CCN=C(c3ccccc3Cl)c3cc(Cl)ccc32)=N1 : 217 to 218 °C
COc1ccc(N2CCOCC2)c2sc(C(=O)NC3CCN(C(=O)OC(C)(C)C)CCC3=O)nc12 (configuration not stated) : 95 to 97 °C

Item under review: CC(=O)c1ccc(OCc2ccsc2)cc1OC(CCc1ccccc1C#N)C(=O)O (configuration not stated) . Reported melting point?
132 to 134 °C

Item under review: "O=c1ccc(-c2cc(F)cc(F)c2)n[nH]1" . Reported melting point?
230 °C

Item under review: "CCCCCCCCCCCCCCOc1cccc(CC(=O)Nc2ccccc2CBr)c1" . Reported melting point?
103 to 106 °C

Item under review: "CCCCn1c(=O)c2c(cnn2S(=O)(=O)CC)n(CCCC)c1=O" . Reported melting point?
119 to 121 °C
